- MEASURED_ON: T1, human TF ECD-His6 (human, UniProt P13726 33-251)
- T1 construct: made in Expi293 cells; the entry holds the ECD with the C-terminal TG-His6; also called TF-His; hTF
- ASSAY_PROCEDURE: SPR (Biacore), antibody on chip, TF-His titrated
READOUT_LABEL: Kd (nM)
Just the number in nM, nothing appended.

Quick one: Kd of 43B7 (antibody, human IgG1, V domains shown, human IgG1) VH: QVQLQESGPGLVKPSQTLSLTCTVSGGSISSGQYWSWIRQHPGKGLEWIGEIYYSGSTRYNPSLKSRVTISVDTSKNQFSLKLSSVTAADTAVYYCARDAPYYYGGGYYYYMDVWGKGTTVTVSS VL: EIVLTQSPGTLSLSPGERATLSCRASESVDSSYLAWYQQKPGQAPRLLIYGADSRATGIPDRFSGSGSGTDFTLTISRLEPEDFAVYYCQQDGVVPYTFGGGTKVEIK ?
0.14
